Numbers sourced from PubChem BioAssay AID2060489.

System: 922993-354-T-J3-PDC complex spheroids, viability
experiment: Anticancer human tumor 922993-354-T-J3-PDC patient-derived endometrial carcinoma cell line growth inhibition [GQUAD]
assayConditions: curve of compound
pIC50: −log10 of the molar value.
measuredAttribute: pIC50

Cc1[nH]c2ccccc2c1CCNCc1ccc(/C=C/C(=O)NO)cc1    < 6.50
Cc1cccc(N(C)C(=O)C2C(O)CCN2c2nc(C)cc(C(F)(F)F)c2C#N)c1 (stereo unspecified)    < 5.00
Nc1ccn(C2OC(CO)C(O)C2(F)F)c(=O)n1 (stereo unspecified)    > 7.50
CC(C)(O)C1CCC(Nc2ccc3ncc(-c4cccc(C(F)(F)F)c4)n3n2)CC1 (stereo unspecified)    < 5.00
CC1COCCN1c1cc(C2(S(C)(=N)=O)CC2)nc(-c2ccnc3[nH]ccc23)n1 (stereo unspecified)    < 5.00

**Q:** Reported pIC50, compound Cn1ncnc1[C@H]1c2n[nH]c(=O)c3cc(F)cc(c23)N[C@@H]1c1ccc(F)cc1 : ____
**A:** < 6.50

**Q:** // repeat for C#Cc1c(F)ccc2cc(O)cc(-c3ncc4c(N5CC6CCC(C5)N6)nc(OCC56CCCN5CC(F)C6)nc4c3F)c12 (stereo unspecified) and report
**A:** < 5.00

**Q:** Then COc1ncnc(C2CC2)c1-c1ncc2cnn(Cc3ccc(-c4nc(C(F)(F)F)cn4C(C)C)cc3)c2n1 ?
**A:** < 5.00

###

Test system: 922993-354-T-J3-PDC complex spheroids, viability
experiment: Anticancer human tumor 922993-354-T-J3-PDC cell line growth inhibition [GQUAD];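 note: spheroids exposed to compounds for seven days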;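 for viability, T/C: 100% = DMSO vehicle control viability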
assayConditions: second compound 0.1 µM; first compound 0.316 µM; stronger effect = lower value
measuredAttribute: viability, T/C (%)
Record the value in %, omitting the unit from your answer.

Examples with answers:
CC1COCCN1c1cc(-c2ccnn2C)c2ccnc(-c3ccn[nH]3)c2n1 (stereo unspecified) + Cc1cnc(CNC(=O)c2c(=O)c3ccc(N4CCCN(C)CC4)nc3n3c2sc2ccccc23)cn1    25.3
CC(C)(O)C1CCC(Nc2ccc3ncc(-c4cccc(C(F)(F)F)c4)n3n2)CC1 (stereo unspecified) + Cc1cnc(CNC(=O)c2c(=O)c3ccc(N4CCCN(C)CC4)nc3n3c2sc2ccccc23)cn1    51.2
COc1cc(C2c3cc4c(cc3C(OC3OC5COC(C)OC5C(O)C3O)C3COC(=O)C23)OCO4)cc(OC)c1O (stereo unspecified) + Cc1[nH]c2ccc(F)cc2c1-c1nc2c3cccnc3c3ncccc3c2[nH]1    92.2

**Q:** Which viability, T/C value belongs to O=C(c1cc(Cc2n[nH]c(=O)c3ccccc23)ccc1F)N1CCN(C(=O)C2CC2)CC1 + Cc1cnc(CNC(=O)c2c(=O)c3ccc(N4CCCN(C)CC4)nc3n3c2sc2ccccc23)cn1 ?
**A:** 64.1

**Q:** Moving on to the next compound: O=c1[nH]cc(F)c(=O)[nH]1 + CN(C)c1ccc(Nc2c3ccc(NC(=O)CCN4CCCC4)cc3nc3cc(NC(=O)CCN4CCCC4)ccc23)cc1
**A:** 112

**Q:** C=CCn1c(=O)c2cnc(Nc3ccc(N4CCN(C)CC4)cc3)nc2n1-c1cccc(C(C)(C)O)n1 + Cc1cnc(CNC(=O)c2c(=O)c3ccc(N4CCCN(C)CC4)nc3n3c2sc2ccccc23)cn1 ?
**A:** 55.6
